A collection of binders and their measured A450nm, 20 nM mAb
Biological target: T1, Scrambled Y42,52,63(SO3) PSGL-1(42-62) biotin peptide
T1 sequence (peptide, sulfotyrosine at peptide positions 1, 11 and 22; C-terminal Lys-biotin): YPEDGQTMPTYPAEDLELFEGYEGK
Test: ELISA, immobilized biotin peptide
Express the result in A450nm but write the number alone.

Below are worked cases with known answers.
**Q:** Hello, please tell me recorded A450nm, 20 nM mAb for this one: 09D11 (antibody, IgG4, V domains shown) VH: QVQLVESGGGFIQPGGSLRLSCAASGLTFSNYAMTWVRQAPGKGLEWVSTISGGGGNTYYTDSVKGRFTISRDNSKNTLYLQMNSLKAEDTAVYRCAKGLAAALFDYWGQGTLVTVSS VL: DIVLTQSPDSLPVTPGEPASISCRSSRSLLHSNGHNFLAWYLQKPGQSPHLLIYLGSNRASGVPDRFSGSGSGTDFTLKISRVEAEDVGIYYCMQALQTPITFGQGTRLDIK
**A:** 0.09

**Q:** Hello, please tell me recorded A450nm, 20 nM mAb for this one: 03D01 (antibody, IgG4, V domains shown) VH: EVQLVQSGGGLVQPGGSLRLSCAATGFTVSRNYMTWVREAPGKGLEWVAGIYKSGTTSYIESVKGRFTISRDNSKNTLYLEMSRLRAEDTAVYYCAKSTSTWGQGTQVTVSS VL: DVVMTQSPVSLPVTLGQPASISCRSSRNLLYSNGNTYLNWFHQRPGQSPRRLIYKVSNQDSGVPDRFSGSGSGTDFTLKISRVEAEDVGVYYCMQGTHWPTTFGQGTRLEIK
**A:** 0.12

**Q:** Hello, please tell me recorded A450nm, 20 nM mAb for this one: 09B09 (antibody, IgG4, V domains shown) VH: EVKLLESGGGLVQPGGSLRLSCAASGITFSTYAMMWVRQAPGKGLEWVSGISGSGASRYYADSVKGRFTISRDNSKNMLYLQMNSLRAEDTAVYYCAKKVLGRRKQYFDDWGQGTLVTVSS VL: DIVMTQSPLSLPVTPGEPASISCRSSQSLLHSNGYNYLDWYLQRPGQSPQLLIYLGSHRASGVPDRFSGSGSGTEHTLKITTVAAEDVGVYYCMQALQSPPTFGQGTRLDIK
**A:** 0.37

Others:
**Q:** Hello, please tell me recorded A450nm, 20 nM mAb for this one: 01A04 (antibody, IgG4, V domains shown) VH: EVQLVQSGAEVKKPGASVKVSCKASGYTFTSYYIHWVRQAPGQGLEWMGIIRPSGGSTSYAQKFQGRVTMTRDTSTSTVYMELSSLRSEDTAMYYCARVGVGSFDYWGQGTLVTVSS VL: DIQMTQSPSTLSASVGDRVTITCRASQSVSNWLAWYQQKPGKAPKLLIYKASSLESGVPSRFSGSGSGTEFTLTISSLQPDDFATYYCQWFRTFGPGTKVDIK
**A:** 0.13
